test system: MHV; test: microbe, parasite or virus in culture; assay type: cell-based, mouse hepatitis virus; settings: Murine coronavirus, L929, 24 h, read-out: EC50 in cell culture, MHV
Would you mind telling me the reported EC50 of each entry?
# number only, unit nM dropped from output

query: What EC50 value was documented for this molecule, CCCCC1CCC(OC(=O)N[C@@H](CC(C)C)C(=O)N[C@H](C=O)C[C@@H]2CCNC2=O)CC1 (some centres unmarked) ?
result: 120

query: Requested read-out: EC50. Entry: CC(C)C[C@H](NC(=O)OCC1CCC(F)(F)CC1)C(=O)N[C@@H](C[C@@H]1CCNC1=O)C(O)S(=O)(=O)O (some centres unmarked)
result: 160

query: Could you tell me which EC50 is on file for CCCC1CCC(OC(=O)N[C@@H](CC(C)C)C(=O)N[C@H](C=O)C[C@@H]2CCNC2=O)CC1 (some centres unmarked) ?
result: 130

query: Bench note: what EC50 did CCCC1CCC(OC(=O)N[C@@H](CC(C)C)C(=O)N[C@@H](C[C@@H]2CCNC2=O)C(O)S(=O)(=O)O)CC1 (some centres unmarked) show?
result: 160

query: Quick one: EC50 of CC(C)C[C@H](NC(=O)OC1CCC(F)(F)CC1)C(=O)N[C@@H](C[C@@H]1CCNC1=O)C(O)S(=O)(=O)O (some centres unmarked) ?
result: 110

* * *

tested on: SARS-CoV-2; experiment: microbe, parasite or virus in culture; type: cell-based; settings: Severe acute respiratory syndrome coronavirus 2, Vero C1008, read-out: EC50 in cell culture, SARS-CoV-2
value-kind: EC50 (nM)
Reply with just the number (in nM).

query: What measured EC50 goes with CCCCC1CCC(OC(=O)N[C@@H](CC(C)C)C(=O)N[C@H](C=O)C[C@@H]2CCNC2=O)CC1 (stereo partly drawn) [Compound 6e] ?
result: 150

query: Query (molecule): CCCC1CCC(OC(=O)N[C@@H](CC(C)C)C(=O)N[C@H](C=O)C[C@@H]2CCNC2=O)CC1 (stereo partly drawn) [Compound 6c] ; field requested: EC50
result: 250

query: Which EC50 is listed for CC(C)C[C@H](NC(=O)OC1CCC(F)(F)CC1)C(=O)N[C@H](C=O)C[C@@H]1CCNC1=O [Compound 6h] ?
result: 900

* * *

Assay system 3CLpro of MERS-CoV (Middle East respiratory syndrome-related coronavirus, UniProt K9N7C7); read-out recorded as IC50.
Write the answer as a number in nM, unit excluded.

query: Looking for the measured IC50 of CCCCC1CCC(OC(=O)N[C@@H](CC(C)C)C(=O)N[C@@H](C[C@@H]2CCNC2=O)C(O)S(=O)(=O)O)CC1 (some centres unmarked) , can you help?
result: 130

query: # lookup: IC50 of CC(C)C[C@H](NC(=O)OC1CCCCC1)C(=O)N[C@H](C=O)C[C@@H]1CCNC1=O
result: 350

query: Look at this compound and give its reported IC50. CC(C)C[C@H](NC(=O)OC1CCCCC1)C(=O)N[C@@H](C[C@@H]1CCNC1=O)C(O)S(=O)(=O)O (some centres unmarked)
result: 150

query: Requested field: IC50. Item: CC(C)C[C@H](NC(=O)OCC1CCC(F)(F)CC1)C(=O)N[C@@H](C[C@@H]1CCNC1=O)C(O)S(=O)(=O)O (some centres unmarked)
result: 100

query: Consider the compound shown here: CC(C)C[C@H](NC(=O)OC1CCC(F)(F)CC1)C(=O)N[C@H](C=O)C[C@@H]1CCNC1=O What is its recorded IC50?
result: 70

query: IC50 lookup needed for CCCC1CCC(OC(=O)N[C@@H](CC(C)C)C(=O)N[C@@H](C[C@@H]2CCNC2=O)C(O)S(=O)(=O)O)CC1 (some centres unmarked) , thanks.
result: 100

query: Sample CCCCC1CCC(OC(=O)N[C@@H](CC(C)C)C(=O)N[C@H](C=O)C[C@@H]2CCNC2=O)CC1 (some centres unmarked) — what was its IC50?
result: 150

query: For the compound shown here, CC(C)C[C@H](NC(=O)OC1CCC(F)(F)CC1)C(=O)N[C@@H](C[C@@H]1CCNC1=O)C(O)S(=O)(=O)O (some centres unmarked) , give the reported IC50.
result: 80
